Where these numbers come from: paper PMC11396129

- System: SNB-19
- run_description: NCI 60 panel growth inhibition (SRB), CNS cancer
- Type: cell-based, human
- run_conditions: SNB-19, 10 μM
# GI% listing for each entry below
reported_property: GI% (%)

compound: CNC(=O)c1nn(C)c2c1C(C)(C)Cc1cnc(Nc3ccc(N4CCN(C)CC4)cc3)nc1-2 [Milciclib, reference compound]
unit_annotation: %
numeric_result: 87.7

compound: COc1ccc(-c2nc3ccccc3s2)cc1OCC(=O)NN=C1C(=O)Nc2ccc([N+](=O)[O-])cc21
unit_annotation: %
numeric_result: 86.59

compound: COc1ccc(-c2nc3ccccc3s2)cc1OCC(=O)NN=C1C(=O)Nc2ccc(Cl)cc21
unit_annotation: %
numeric_result: 63.00

compound: COc1ccc(-c2nc3ccccc3s2)cc1OCC(=O)NN=C1C(=O)Nc2ccc(Br)cc21
unit_annotation: %
numeric_result: 48.19

compound: COc1ccc2c(c1)C(=NNC(=O)COc1c(OC)cccc1-c1nc3ccccc3s1)C(=O)N2
unit_annotation: %
numeric_result: 11.58

compound: COc1ccc2c(c1)C(=NNC(=O)COc1ccccc1-c1nc3ccccc3s1)C(=O)N2
unit_annotation: %
numeric_result: 7.69

compound: O=C(COc1ccccc1-c1nc2ccccc2s1)NN=C1C(=O)Nc2ccccc21
unit_annotation: %
numeric_result: 6.15

* * *

- system_tested: FGFR-1 (Homo sapiens)
- Sequence (P11362 22-822, species assumed): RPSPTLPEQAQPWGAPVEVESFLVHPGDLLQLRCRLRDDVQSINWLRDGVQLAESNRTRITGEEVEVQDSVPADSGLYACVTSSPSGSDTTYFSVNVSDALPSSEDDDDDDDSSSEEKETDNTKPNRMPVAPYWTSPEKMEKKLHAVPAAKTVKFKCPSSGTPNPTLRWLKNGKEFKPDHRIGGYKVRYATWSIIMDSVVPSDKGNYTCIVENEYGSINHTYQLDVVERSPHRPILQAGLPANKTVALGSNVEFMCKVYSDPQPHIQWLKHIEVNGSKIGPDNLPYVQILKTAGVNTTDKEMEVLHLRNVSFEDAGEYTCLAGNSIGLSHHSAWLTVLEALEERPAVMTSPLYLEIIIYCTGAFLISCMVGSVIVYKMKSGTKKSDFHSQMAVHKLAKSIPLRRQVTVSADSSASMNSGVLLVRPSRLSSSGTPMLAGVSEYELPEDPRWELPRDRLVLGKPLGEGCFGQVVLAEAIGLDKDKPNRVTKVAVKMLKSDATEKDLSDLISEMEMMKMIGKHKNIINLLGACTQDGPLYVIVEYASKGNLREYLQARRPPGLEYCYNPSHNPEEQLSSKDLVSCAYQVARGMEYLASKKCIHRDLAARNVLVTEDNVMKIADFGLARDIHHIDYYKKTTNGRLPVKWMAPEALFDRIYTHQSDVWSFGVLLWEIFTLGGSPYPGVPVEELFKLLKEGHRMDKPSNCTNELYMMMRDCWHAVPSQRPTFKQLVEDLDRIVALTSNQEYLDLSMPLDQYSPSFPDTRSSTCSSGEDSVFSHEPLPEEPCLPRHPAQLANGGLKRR
- run_description: Kinase inhibitory activity on FGFR-1
- Assay type: biochemical
- run_conditions: mean of two independent experiments ± SD
reported_property: IC50

molecule: COc1ccc2c(c1)C(=NNC(=O)COc1cc(-c3nc4ccccc4s3)ccc1OC)C(=O)N2 [Compound 9o]
reported_property: IC50
result: > 10 µM

* * *

# GI% listing for each entry below
- Test system: A498
- run_description: NCI 60 panel growth inhibition (SRB), renal cancer
- Type: cell-based, human
- run_conditions: A498, 10 μM
reported_property: GI% (%)

molecule: COc1ccc(-c2nc3ccccc3s2)cc1OCC(=O)NN=C1C(=O)Nc2ccc([N+](=O)[O-])cc21
system_tested: A498
reported_property: GI%
numeric_result: 20.06

molecule: CNC(=O)c1nn(C)c2c1C(C)(C)Cc1cnc(Nc3ccc(N4CCN(C)CC4)cc3)nc1-2 [Milciclib, reference compound]
system_tested: A498
reported_property: GI%
numeric_result: 161.60

* * *

- Test system: CCRF-CEM
- run_description: NCI 60 panel growth inhibition (SRB), leukemia
- Format: cell-based, human
- run_conditions: 10 μM
# GI% listing for each entry below
reported_property: GI%

molecule: COc1cccc(-c2nc3ccccc3s2)c1OCC(=O)NN=C1C(=O)Nc2ccccc21 [Compound 9g]
result: 41.07%
--
molecule: COc1ccc(-c2nc3ccccc3s2)cc1OCC(=O)NN=C1C(=O)Nc2ccc(Br)cc21 [Compound 9r]
result: 42.87%
--
molecule: Cc1ccc2c(c1)C(=NNC(=O)COc1ccccc1-c1nc3ccccc3s1)C(=O)N2 [Compound 9b]
result: 23.64%
--
molecule: COc1ccc(-c2nc3ccccc3s2)cc1OCC(=O)NN=C1C(=O)Nc2ccccc21 [Compound 9m]
result: 40.05%
--
molecule: COc1ccc(-c2nc3ccccc3s2)cc1OCC(=O)NN=C1C(=O)Nc2ccc([N+](=O)[O-])cc21 [Compound 9p]
result: 9.28%
--
molecule: O=C(COc1ccccc1-c1nc2ccccc2s1)NN=C1C(=O)Nc2ccc(Br)cc21 [Compound 9f]
result: 21.91%
--
molecule: COc1ccc(-c2nc3ccccc3s2)cc1OCC(=O)NN=C1C(=O)Nc2ccc(Cl)cc21 [Compound 9q]
result: 81.35%
--
molecule: COc1ccc2c(c1)C(=NNC(=O)COc1ccccc1-c1nc3ccccc3s1)C(=O)N2 [Compound 9c]
result: 60.17%
--
molecule: O=C(COc1ccccc1-c1nc2ccccc2s1)NN=C1C(=O)Nc2ccccc21 [Compound 9a]
result: 20.22%
